From: PubChem BioAssay (NCI)

growth inhibition values, listed per item
Test: NCI Yeast Anticancer Drug Screen. Data for the rad52 strain (AID 147);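 also: 0% = growth of vehicle-treated control cultures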
Details: S. cerevisiae rad52 mutant growth inhibition; at 3.7 µM; active compounds read high
This is part of a sample that, as a whole, favours compounds with a hit. Of some 79,000 tested, about 15% had one in any assay.
Record the value in %, omitting the unit from your answer.

// solved cases for growth inhibition follow
Inquiry: // returns reported growth inhibition for input CN(C)CCSC1=Nc2ccc(Cl)cc2C(c2ccccc2Cl)=NC1
Reply text: -8

Inquiry: Quick one: growth inhibition of Cc1c(N)nc([C@H](CC(N)=O)NC[C@H](N)C(N)=O)nc1C(=O)N[C@H](C(=O)N[C@H](C)[C@@H](O)[C@H](C)C(=O)N[C@H](C(=O)NCCc1nc(-c2nc(C(=O)NCCC[S+](C)C)cs2)cs1)[C@@H](C)O)C(OC1OC(CO)C(O)C(O)C1OC1OC(CO)C(O)C(OC(N)=O)C1O)c1cnc[nH]1 (some centres undefined) ?
Reply text: 19

Inquiry: // lookup growth inhibition for C[N+]1(CCCl)CC[N+](C)(CCCl)CC1 (centres undefined)
Reply text: 3

More entries:
Inquiry: Requested field: growth inhibition. Item: O=[N+]([O-])c1ccc(-n2nc3ccc4c(no[n+]4[O-])c3[n+]2[O-])c([N+](=O)[O-])c1
Reply text: 1

Inquiry: growth inhibition for O=C(COc1ccc(Cl)cc1Cl)NO ?
Reply text: 0

Inquiry: Give its growth inhibition value. Item: Oc1cccnc1[Se]
Reply text: 7

Inquiry: # query: growth inhibition of entry O=S(=O)(O)c1ccc(Cl)cc1.[Cd]
Reply text: 9

Inquiry: // growth inhibition lookup, key: CC1CC(Br)C(=O)O1 (centres undefined)
Reply text: -35

Inquiry: Recorded growth inhibition for O=C1C=C(CN(CCCl)CCCl)C(=O)C=C1CN(CCCl)CCCl , please?
Reply text: 0

Inquiry: Which growth inhibition is reported for this compound? NNc1ccccc1Cl
Reply text: 72
